- test: Toxicity (LD50 per os in the mouse)
- conditionDetails: in vivo, po
assayEndpoint: LD50

{"columns": ["moleculeSmiles", "valueReported"],
 "data": [
  ["CC(C)=CCCC(=O)c1ccc(-c2ccc(CN(C)C)cc2)cc1", "1250 to 2500 mg/kg"]
]}

Just for reference, patent US5574071A is where these values come from.
